Reference source for all entries: patent US5849690A

Target: Platelet rich plasma, PRP (Canis lupus familiaris, UniProt A0A8I3N5G5+A0A8I3PMU9)
Sequence (A0A8I3N5G5 1-1047): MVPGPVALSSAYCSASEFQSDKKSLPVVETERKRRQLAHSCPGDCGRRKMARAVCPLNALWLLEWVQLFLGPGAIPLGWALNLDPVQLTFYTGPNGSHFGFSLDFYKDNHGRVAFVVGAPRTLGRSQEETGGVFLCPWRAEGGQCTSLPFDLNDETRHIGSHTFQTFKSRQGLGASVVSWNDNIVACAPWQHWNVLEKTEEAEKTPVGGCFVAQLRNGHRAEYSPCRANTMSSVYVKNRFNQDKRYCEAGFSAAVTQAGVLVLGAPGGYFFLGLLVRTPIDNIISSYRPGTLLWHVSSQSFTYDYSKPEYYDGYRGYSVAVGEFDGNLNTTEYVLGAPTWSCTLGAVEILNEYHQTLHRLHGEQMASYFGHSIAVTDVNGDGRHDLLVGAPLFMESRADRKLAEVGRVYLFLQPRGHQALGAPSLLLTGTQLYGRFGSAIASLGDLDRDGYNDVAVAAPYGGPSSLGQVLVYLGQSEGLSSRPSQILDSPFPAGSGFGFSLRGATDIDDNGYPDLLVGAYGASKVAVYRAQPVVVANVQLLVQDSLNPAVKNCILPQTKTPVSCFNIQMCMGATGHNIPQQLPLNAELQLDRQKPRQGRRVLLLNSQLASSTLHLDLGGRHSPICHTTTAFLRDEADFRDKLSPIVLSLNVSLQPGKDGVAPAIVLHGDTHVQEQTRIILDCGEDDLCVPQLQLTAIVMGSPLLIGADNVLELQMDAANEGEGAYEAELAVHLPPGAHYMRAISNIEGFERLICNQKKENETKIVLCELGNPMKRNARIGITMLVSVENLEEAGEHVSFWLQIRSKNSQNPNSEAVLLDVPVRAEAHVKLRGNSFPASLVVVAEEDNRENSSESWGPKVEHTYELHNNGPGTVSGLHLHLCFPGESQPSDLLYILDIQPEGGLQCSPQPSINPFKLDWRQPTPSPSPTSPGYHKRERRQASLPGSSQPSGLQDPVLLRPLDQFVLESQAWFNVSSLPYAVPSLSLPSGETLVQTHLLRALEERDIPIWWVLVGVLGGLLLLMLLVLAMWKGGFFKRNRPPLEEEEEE
Sequence (A0A8I3PMU9 1-919): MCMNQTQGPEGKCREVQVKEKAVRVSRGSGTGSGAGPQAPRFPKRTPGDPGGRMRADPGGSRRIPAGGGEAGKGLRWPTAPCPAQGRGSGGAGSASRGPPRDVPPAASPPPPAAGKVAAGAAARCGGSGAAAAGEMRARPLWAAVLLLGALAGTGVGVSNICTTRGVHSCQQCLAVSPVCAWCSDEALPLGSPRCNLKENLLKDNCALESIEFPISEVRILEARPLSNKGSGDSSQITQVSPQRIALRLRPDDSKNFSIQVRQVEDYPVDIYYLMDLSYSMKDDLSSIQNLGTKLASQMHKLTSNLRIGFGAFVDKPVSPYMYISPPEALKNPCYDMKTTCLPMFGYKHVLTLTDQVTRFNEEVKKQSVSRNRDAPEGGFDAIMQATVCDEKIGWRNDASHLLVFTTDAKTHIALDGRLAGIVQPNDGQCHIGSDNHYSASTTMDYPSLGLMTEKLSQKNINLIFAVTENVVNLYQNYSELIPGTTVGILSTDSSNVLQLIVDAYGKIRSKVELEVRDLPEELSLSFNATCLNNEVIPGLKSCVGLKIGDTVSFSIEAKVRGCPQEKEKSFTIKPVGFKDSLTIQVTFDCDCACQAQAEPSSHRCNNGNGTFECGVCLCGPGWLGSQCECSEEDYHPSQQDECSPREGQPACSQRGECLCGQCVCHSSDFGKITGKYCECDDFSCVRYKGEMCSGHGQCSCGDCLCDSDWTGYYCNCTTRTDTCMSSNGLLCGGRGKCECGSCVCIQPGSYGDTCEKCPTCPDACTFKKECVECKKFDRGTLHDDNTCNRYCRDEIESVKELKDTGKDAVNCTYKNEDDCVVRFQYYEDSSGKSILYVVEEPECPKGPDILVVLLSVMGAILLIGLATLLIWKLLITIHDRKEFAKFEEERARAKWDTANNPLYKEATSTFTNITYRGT
Experiment: Inhibition of platelet aggregation, PRP/ADP
Format: cell-based
Conditions: dog platelet rich plasma, 2 μM ADP, peptide added 3 min. prior to agonist; read-out: Antiaggregatory Activity IC50, μM PRP/ADP
Residues, ends and D or L forms follow the SMILES beside them.
IC50 strictly under 60 µM means Met; at 60 µM or over means Not met.

Recorded results for 3 compounds are shown here.
# input Is IC50 strictly under 60 µM for the entry CC(=O)N(C)[C@@H](CCCNC(=N)N)C(=O)NCC(=O)N[C@@H](CC(=O)O)C(=O)N[C@@H](Cc1ccccc1)C(N)=O [Example 35, N^α -Ac-MeArg-Gly-Asp-Phe-NH2] (HELM PEPTIDE1{[ac].[meR].G.D.F.[am]}$$$$V2.0) ?
# output Met

# input Please indicate whether the reported IC50 of CC(=O)N[C@H]1CSSC(C)(C)[C@@H](C(N)=O)NC(=O)[C@H](CC(=O)O)NC(=O)CNC(=O)[C@H](CCCCN)NC1=O [Example 12] (HELM PEPTIDE1{[ac].C.K.G.D.[Pen].[am]}$PEPTIDE1,PEPTIDE1,2:R3-6:R3$$$V2.0) is strictly below 60 µM.
# output Met

# input I wonder whether CN[C@@H](CCCNC(=N)N)C(=O)NCC(=O)N[C@@H](CC(=O)O)C(=O)N[C@@H](CO)C(N)=O [Example 37, N^α -MeArg-Gly-Asp-Ser-NH2] (HELM PEPTIDE1{[meR].G.D.S.[am]}$$$$V2.0) has IC50 below 60 µM. Can you tell?
# output Not met

New cases:
# input Criterion: IC50 strictly below 60 µM. Is it met by CCNC(=O)[C@H]1NC(=O)[C@H](CC(=O)O)NC(=O)CNC(=O)[C@H](CCCNC(=N)N)NC(=O)[C@@H](NC(C)=O)CSSC1(C)C [Example 16] (HELM PEPTIDE1{[ac].C.R.G.D.[Pen].[CCN[*:1]]}$PEPTIDE1,PEPTIDE1,2:R3-6:R3$$$V2.0) ?
# output Met

# input I wonder whether CC(=O)N[C@@H](CCCN=C(N)N)C(=O)NCC(=O)N[C@@H](CC(=O)O)C(=O)N[C@H](C(N)=O)C(C)C [Example 31, N^α -Ac-Arg-Gly-Asp-Val-NH2] (Ac-RGDV-NH2) has IC50 below 60 µM. Can you tell?
# output Met

# input Is 60 µM strictly greater than the compound's reported IC50? compound: CC(=O)N[C@@H](CCCCNC(=N)N)C(=O)NCC(=O)N[C@@H](CC(=O)O)C(=O)N[C@@H](CO)C(N)=O [Example 36, Ac-HArg-Gly-Asp-Ser-NH2] (HELM PEPTIDE1{[ac].[N=C(N)NCCCC[C@H](N[*:1])C(=O)[*:2]].G.D.S.[am]}$$$$V2.0)
# output Not met

# input In plain terms, does CC(=O)N[C@H]1CSSC(C)(C)[C@@H](C(N)=O)NC(=O)[C@H](CC(=O)O)NC(=O)CNC(=O)[C@H](CCCNC(=N)N)N(C)C1=O [Example 14] (HELM PEPTIDE1{[ac].C.[meR].G.D.[Pen].[am]}$PEPTIDE1,PEPTIDE1,2:R3-6:R3$$$V2.0) come in under 60 µM for IC50?
# output Met
